molecular target: AMP-activated protein kinase, AMPK (Homo sapiens) (UniProt P54646+O43741+P54619+Q9UGJ0+Q9Y478+Q13131+Q9UGI9); assay: AMP-dependent Kinase enzyme assay. An in vitro enzyme assay that detects ADP turnover that is directly proportional to AMPK activity. This uses naive AMPK that is activated during the assay with MK-8722; type: functional; parameters: scale not given: direction of the effect not stated beside the values; conditions: 30 µM
Listed compounds paired with reported Percent Effect
Provide only the numeric value, understood in %.

1. CCN1CCN(S(=O)(=O)c2cc(Cl)c(Cl)cc2C)CC1	5.2
2. O=C(Cc1ccc(O)c(Cl)c1)N1CCCCC1CCn1cccn1 (centres undefined)	1.21
3. Cc1cc(CC(=O)N(CC2CN(C)CCO2)c2nccs2)no1 (centres undefined)	-0.764
4. CCS(=O)(=O)c1ccc(N2CCC(NC(=O)c3cnn(C)c3)CC2)cc1	-5.84
5. COc1ccc(C(C)=O)c(OCC(=O)NC(C)c2ccc(F)cc2)c1 (centres undefined)	-5.53
6. Cc1cnc(CN(C)CC2CCCN2c2cccnn2)cn1 (centres undefined)	-9.07

I have this compound here, CC(C)c1nc(C2CCCN(C(=O)Cc3cccnc3)C2)no1 (centres undefined) , and I need its recorded Percent Effect.
-13.3

I have this compound here, Cc1ccn(-c2ccccc2NCc2cccnc2C)n1 , and I need its recorded Percent Effect.
2.86

I have this compound here, CC(C)c1nn(C)c(Cl)c1CNCC(O)c1cccc(F)c1 (centres undefined) , and I need its recorded Percent Effect.
-1.22

I have this compound here, Cc1nc(C(=O)N2CCC(Nc3cccnn3)CC2)cs1 , and I need its recorded Percent Effect.
-12.2

I have this compound here, CC(CNCc1ccc(Cl)c(Cl)c1)Oc1ccccn1 (centres undefined) , and I need its recorded Percent Effect.
0.69

I have this compound here, CCn1cnnc1C1CCN(C(=O)c2cc3c(s2)CCC3)CC1 , and I need its recorded Percent Effect.
-5.35

I have this compound here, CCCS(=O)(=O)N1CCOCC2(CCN(c3ccccn3)C2)C1 (centres undefined) , and I need its recorded Percent Effect.
-1.28

I have this compound here, CCc1cc(=O)[nH]c2nnc(SCC(=O)OC)n12 , and I need its recorded Percent Effect.
-5.37

I have this compound here, O=C(NCc1ccc(F)cc1)N1CCC(C2OCCO2)CC1 , and I need its recorded Percent Effect.
6.23

Data provenance: ChEMBL document CHEMBL3988442
